B1: SFRS1 (parent)
chain: YSPRRSRGSPRYSPRHSRSRSRT

Variants of: B1
ASSAY_EXPLANATION: protein stability index of a GFP-peptide fusion (GPS, HEK-293T) (PSI 1-6); higher = more stable;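 note: lentivirally expressed fusions sorted by FACS into six bins by GFP to DsRed ratio, PSI derived from sequencing read proportions per bin multiplied by bin number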
CONDITIONS_USED: c terminus: native
Quick rule: protein stability index of at least 4 means MET, below that means NOT MET.

Qu. Reported protein stability index at or above 4? YSPRRSRGSPRYSPRHLRSRSRT [S17L]
Ans. NOT MET

Qu. Check YSPRRSRLSPRYSPRHSRSRSRT [G8L] too.
Ans. NOT MET

Qu. Check YSCRRSRGSPRYSPRHSRSRSRT [P3C] too.
Ans. NOT MET

Qu. Check YSPRRSRGFPRYSPRHSRSRSRT [S9F] too.
Ans. NOT MET

Qu. Check YSPRRSRGSPRYSPRHSRSFSRT [R20F] too.
Ans. NOT MET

Qu. Check YSPRRMRGSPRYSPRHSRSRSRT [S6M] too.
Ans. NOT MET

Qu. Check YSPRRSRGSPRYSPRHSRLRSRT [S19L] too.
Ans. NOT MET

Qu. Check YSPRRSRGSPRYSPRHSRSRGRT [S21G] too.
Ans. NOT MET

Qu. Check YSPRMSRGSPRYSPRHSRSRSRT [R5M] too.
Ans. NOT MET

Qu. Check YSPRRSEGSPRYSPRHSRSRSRT [R7E] too.
Ans. NOT MET

Qu. Check YSPRRSRGSPRYSPRHSRSRSGT [R22G] too.
Ans. NOT MET

Qu. Check SSPRRSRGSPRYSPRHSRSRSRT [Y1S] too.
Ans. MET

Qu. Check YSPRRSRGSPRYTPRHSRSRSRT [S13T] too.
Ans. NOT MET

Qu. Check YSPRRLRGSPRYSPRHSRSRSRT [S6L] too.
Ans. NOT MET

Qu. Check YSPRRSRGSPRYSPRFSRSRSRT [H16F] too.
Ans. NOT MET

Qu. Check NSPRRSRGSPRYSPRHSRSRSRT [Y1N] too.
Ans. MET

Qu. Check YSPRRSRGSPRYSPRHSRSISRT [R20I] too.
Ans. NOT MET

Qu. Check YSPRRSRGSPRYSPRHSRSRSNT [R22N] too.
Ans. NOT MET

Qu. Check YSPRRDRGSPRYSPRHSRSRSRT [S6D] too.
Ans. NOT MET

Qu. Check YSPRRSRGSPCYSPRHSRSRSRT [R11C] too.
Ans. NOT MET

Qu. Check YSPRRSRGSPRYSPRHSRSRSMT [R22M] too.
Ans. NOT MET

Qu. Check YSPRRSRGSPRYSPRHSRSKSRT [R20K] too.
Ans. NOT MET

Qu. Check YSPRRSRGSPRYSPRHSRIRSRT [S19I] too.
Ans. NOT MET

Qu. Check YSQRRSRGSPRYSPRHSRSRSRT [P3Q] too.
Ans. NOT MET

Qu. Check YSPRRSRHSPRYSPRHSRSRSRT [G8H] too.
Ans. NOT MET

Qu. Check YSPRRSAGSPRYSPRHSRSRSRT [R7A] too.
Ans. NOT MET

Qu. Check YSPRRSRGSPRYSPVHSRSRSRT [R15V] too.
Ans. NOT MET

Qu. Check YSPRDSRGSPRYSPRHSRSRSRT [R5D] too.
Ans. NOT MET

Qu. Check YSPRQSRGSPRYSPRHSRSRSRT [R5Q] too.
Ans. NOT MET

Qu. Check YSPRRSRGSPRYSPRLSRSRSRT [H16L] too.
Ans. MET

Qu. Check YSPERSRGSPRYSPRHSRSRSRT [R4E] too.
Ans. NOT MET

Qu. Check YSPRRSRGSPRYSPRHSRSRSRV [T23V] too.
Ans. NOT MET

Qu. Check YFPRRSRGSPRYSPRHSRSRSRT [S2F] too.
Ans. NOT MET

Qu. Check YSPRRSRGSPRYSPRHSRSSSRT [R20S] too.
Ans. MET

Qu. Check YSPRCSRGSPRYSPRHSRSRSRT [R5C] too.
Ans. NOT MET

Qu. Check YSPRRSRGSPRYSPRHSRSRSDT [R22D] too.
Ans. NOT MET

Qu. Check YSPCRSRGSPRYSPRHSRSRSRT [R4C] too.
Ans. NOT MET

Qu. Check YSPRRSRGSPRYSPTHSRSRSRT [R15T] too.
Ans. NOT MET

Qu. Check YSPRRSRGSPRYSPRHSDSRSRT [R18D] too.
Ans. NOT MET

Qu. Check YSPRVSRGSPRYSPRHSRSRSRT [R5V] too.
Ans. NOT MET

Qu. Check YSPRRSRGSPRYSPIHSRSRSRT [R15I] too.
Ans. NOT MET

Qu. Check YSPRRSRGSPRYKPRHSRSRSRT [S13K] too.
Ans. MET

Qu. Check YSPRRSRGSTRYSPRHSRSRSRT [P10T] too.
Ans. MET

Qu. Check YSPRRSRGSPRYSPRHRRSRSRT [S17R] too.
Ans. MET

Qu. Check YSPRRSRGSPRRSPRHSRSRSRT [Y12R] too.
Ans. MET

Qu. Check YSPRRSRGSYRYSPRHSRSRSRT [P10Y] too.
Ans. NOT MET

Qu. Check YSPRRSRGSPRYSPRHFRSRSRT [S17F] too.
Ans. MET

Qu. Check YSPFRSRGSPRYSPRHSRSRSRT [R4F] too.
Ans. NOT MET

Qu. Check YSPRRSRGSPRYSPRHSRSVSRT [R20V] too.
Ans. NOT MET

Qu. Check YSPRRSRGSPRYSPRHSESRSRT [R18E] too.
Ans. NOT MET

Qu. Check YSPIRSRGSPRYSPRHSRSRSRT [R4I] too.
Ans. NOT MET

Qu. Check TSPRRSRGSPRYSPRHSRSRSRT [Y1T] too.
Ans. MET

Qu. Check YSPRRSRGSPRYSPRHSRSRSAT [R22A] too.
Ans. NOT MET

Qu. Check YSPRRSRGSPRYSPRHSRSRSCT [R22C] too.
Ans. NOT MET

Qu. Check YSPRRSRGSPRYSFRHSRSRSRT [P14F] too.
Ans. NOT MET

Qu. Check YSPRRSRGSPRYMPRHSRSRSRT [S13M] too.
Ans. NOT MET

Qu. Check YSPRRSRGSPRYSHRHSRSRSRT [P14H] too.
Ans. MET

Qu. Check YSPRRARGSPRYSPRHSRSRSRT [S6A] too.
Ans. MET

Qu. Check YRPRRSRGSPRYSPRHSRSRSRT [S2R] too.
Ans. MET

Qu. Check YYPRRSRGSPRYSPRHSRSRSRT [S2Y] too.
Ans. NOT MET

Qu. Check YSPRRSPGSPRYSPRHSRSRSRT [R7P] too.
Ans. NOT MET

Qu. Check YSPRRSRGSPRYSPRHSRSRERT [S21E] too.
Ans. NOT MET

Qu. Check YSPRRSRGSPRYSPRHSRTRSRT [S19T] too.
Ans. NOT MET

Qu. Check YSPRRSRGSPRYSPRHSRCRSRT [S19C] too.
Ans. NOT MET

Qu. Check YSPRRSRGSPRYSPRHSRSRSRN [T23N] too.
Ans. NOT MET

Qu. Check YSPRRSRQSPRYSPRHSRSRSRT [G8Q] too.
Ans. NOT MET

Qu. Check YSPRRSRGSPRYSPPHSRSRSRT [R15P] too.
Ans. NOT MET

Qu. Check YSPRRSRGSPRYSPRHSRSRHRT [S21H] too.
Ans. NOT MET

Qu. Check YSRRRSRGSPRYSPRHSRSRSRT [P3R] too.
Ans. MET

Qu. Check YSPRRSRGSPRMSPRHSRSRSRT [Y12M] too.
Ans. NOT MET

Qu. Check YSPRRSDGSPRYSPRHSRSRSRT [R7D] too.
Ans. NOT MET

Qu. Check YSPRRSRGSPRYSPRHSRKRSRT [S19K] too.
Ans. NOT MET

Qu. Check YSPRRSRGSPRYSPRHSRSRSIT [R22I] too.
Ans. NOT MET

Qu. Check YTPRRSRGSPRYSPRHSRSRSRT [S2T] too.
Ans. NOT MET

Qu. Check YSPTRSRGSPRYSPRHSRSRSRT [R4T] too.
Ans. NOT MET

Qu. Check YSPRRSRGSPRYYPRHSRSRSRT [S13Y] too.
Ans. NOT MET

Qu. Check YSPRRSRGSPRYSPRHVRSRSRT [S17V] too.
Ans. NOT MET

Qu. Check YSPRRSRGSPRYSPRHSRFRSRT [S19F] too.
Ans. NOT MET

Qu. Check YSPRRSRGSPRYSPRRSRSRSRT [H16R] too.
Ans. MET

Each recorded value in this set is attributed to the supplement of paper PMC10567573.
